Give log10(IC50) for every item shown.
Biological target: Thromboxane-A synthase (Homo sapiens, UniProt P24557)
Plainly stated, the numbers are log10 of IC50 given in nM.

Check out these entries, answers already filled in.
INSERT INTO assay_data (molecule, tested_on, measured) VALUES
  ('COc1ccc(S(=O)(=O)NCCc2ccc(/C(=C\CCCC(=O)O)c3cccnc3)cc2)cc1', 'Thromboxane-A synthase (Homo sapiens, UniProt P24557)', 0.70),
  ('O=C(O)CCC/C=C(\c1ccc(CCNS(=O)(=O)c2ccc(Cl)cc2)cc1)c1cccnc1 [SAMIXOGREL]', 'Thromboxane-A synthase (Homo sapiens, UniProt P24557)', 0.60),
  ('COC(=O)CCC/C=C(\c1ccc(CCNS(=O)(=O)c2ccc(Cl)cc2)cc1)c1cccnc1', 'Thromboxane-A synthase (Homo sapiens, UniProt P24557)', 1.52),
  ('O=C(O)CCCCCC(c1ccc(CCNS(=O)(=O)c2ccc(Cl)cc2)cc1)c1cccnc1 (stereo unspecified)', 'Thromboxane-A synthase (Homo sapiens, UniProt P24557)', 1.49),
  ('O=C(O)CCC/C=C(/c1ccc(CCNS(=O)(=O)c2ccc(Cl)cc2)cc1)c1cccnc1', 'Thromboxane-A synthase (Homo sapiens, UniProt P24557)', 2.69);

// input: 2 molecules below; output: log10(IC50) for each
1. CCCCS(=O)(=O)NCCc1ccc(/C(=C\CCCC(=O)O)c2cccnc2)cc1
2. O=C(O)CCC/C=C(/c1cccnc1)c1cccc(CCNS(=O)(=O)c2ccc(Cl)cc2)c1

Output:
[0.70, 0.60]

----------
Would you mind telling me the reported log10 of EC50 of each entry?
Species on record: Homo sapiens
Experiment: tissue or blood
Format: functional, organism-based
Settings: Plasma
Description: Inhibition of collagen-induced platelet aggregation in human platelet-rich plasma.
# log10 transformed; quantity=EC50; unit=µM

Reference set, count: 5
INSERT INTO assay_data (compound, quantity_measured, measured) VALUES
  ('O=C(O)CCC/C=C(\c1ccc(CCNS(=O)(=O)c2ccc(F)cc2)cc1)c1cccnc1', 'log10 of EC50', 0.49),
  ('CCN(CCc1ccc(/C(=C\CCCC(=O)O)c2cccnc2)cc1)S(=O)(=O)c1ccc(Cl)cc1', 'log10 of EC50', 1.11),
  ('O=C(O)CC/C=C(\c1ccc(CCNS(=O)(=O)c2ccc(Cl)cc2)cc1)c1cccnc1', 'log10 of EC50', 1.56),
  ('COc1ccc(S(=O)(=O)NCCc2ccc(/C(=C\CCCC(=O)O)c3cccnc3)cc2)cc1', 'log10 of EC50', 1.00),
  ('O=S(=O)(NCCc1ccc(/C(=C\CCCc2nnn[nH]2)c2cccnc2)cc1)c1ccc(Cl)cc1', 'log10 of EC50', 0.98);

Working through the 2 compounds below one at a time, give log10 of EC50 for each.
1. O=C(O)CCC/C=C(/c1cccnc1)c1ccc2c(c1)CC(NS(=O)(=O)c1ccc(F)cc1)C2 (centres undefined)
2. CNC(=O)CCC/C=C(\c1ccc(CCNS(=O)(=O)c2ccc(Cl)cc2)cc1)c1cccnc1

Output:
1: -0.25; 2: 1.38

----------
For reference, pIC50 measured on Thromboxane A2 receptor (Homo sapiens):
Numbers only, as −log10 of the molar value.

For orientation, consider the following solved cases.
INSERT INTO assay_data (compound, quantity_measured, measured) VALUES
  ('CNC(=O)CCC/C=C(\c1ccc(CCNS(=O)(=O)c2ccc(Cl)cc2)cc1)c1cccnc1', 'pIC50', 6.77),
  ('O=C(O)CCC/C=C(\c1ccc(CCNS(=O)(=O)c2ccc(F)cc2)cc1)c1cccnc1', 'pIC50', 7.18),
  ('CN(CCc1ccc(/C(=C\CCCC(=O)O)c2cccnc2)cc1)S(=O)(=O)c1ccc(Cl)cc1', 'pIC50', 7.60),
  ('CC(C)N(CCc1ccc(/C(=C\CCCC(=O)O)c2cccnc2)cc1)S(=O)(=O)c1ccc(Cl)cc1', 'pIC50', 7.29),
  ('O=C(O)CCC/C=C(/c1cccnc1)c1ccc2c(c1)CCC(NS(=O)(=O)c1ccc(Cl)cc1)C2 (stereo not drawn)', 'pIC50', 7.89);

Batch: pIC50 for all items listed.
1. O=C(O)CCC/C=C(\c1ccc(CCNS(=O)(=O)c2ccc(C(F)(F)F)cc2)cc1)c1cccnc1
2. O=C(O)CCC/C=C(\c1ccc(CCN(CCC(=O)O)S(=O)(=O)c2ccc(Cl)cc2)cc1)c1cccnc1
3. O=C(O)CCC/C=C(\c1ccc(CCNS(=O)(=O)c2ccccc2)cc1)c1cccnc1

Output:
7.55
6.92
7.09

----------
Species: Homo sapiens
Assay: tissue or blood
Format: functional, organism-based
Conditions: Plasma
pEC50: −log10 of the molar value.
Label Y when pEC50 >= 5; otherwise N.

Look over these answered cases.
INSERT INTO results (compound, group_label) VALUES
  ('O=C(O)CCC/C=C(/c1cccnc1)c1ccc2c(c1)CCC(NS(=O)(=O)c1ccc(Cl)cc1)C2 (stereo not drawn)', 'Y'),
  ('NC(=O)CCC/C=C(\c1ccc(CCNS(=O)(=O)c2ccc(Cl)cc2)cc1)c1cccnc1', 'N'),
  ('O=C(O)CCC/C=C(\c1ccc(CCNS(=O)(=O)c2ccc(Cl)cc2)cc1)c1cccnc1', 'Y'),
  ('O=C(O)c1ccc(/C=C(\c2ccc(CCNS(=O)(=O)c3ccc(Cl)cc3)cc2)c2cccnc2)cc1', 'N'),
  ('COc1ccc(S(=O)(=O)NCCc2ccc(/C(=C\CCCC(=O)O)c3cccnc3)cc2)cc1OC', 'N');

Here is the next item to consider.
Task: Reported pEC50 reaches at least 5 for O=C(O)CCC/C=C(\c1ccc(CCNS(=O)(=O)c2ccc(C(F)(F)F)cc2)cc1)c1cccnc1 ?
Output: Y

----------
Measured IC50 on Thromboxane A2 receptor (Homo sapiens) follows.
Sequence (P21731 whole entry): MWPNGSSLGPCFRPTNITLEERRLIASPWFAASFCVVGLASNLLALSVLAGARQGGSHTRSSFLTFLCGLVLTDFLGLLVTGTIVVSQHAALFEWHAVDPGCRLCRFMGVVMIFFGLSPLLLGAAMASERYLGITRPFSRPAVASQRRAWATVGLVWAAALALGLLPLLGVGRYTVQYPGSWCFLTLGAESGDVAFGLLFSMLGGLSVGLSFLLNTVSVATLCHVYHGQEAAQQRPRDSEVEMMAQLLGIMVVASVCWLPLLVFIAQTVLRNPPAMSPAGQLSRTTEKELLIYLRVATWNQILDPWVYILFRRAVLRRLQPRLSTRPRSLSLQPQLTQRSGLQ
Numbers only, in nM.

INSERT INTO assay_data (molecule, quantity_measured, display_unit, measured) VALUES
  ('O=C(O)CCC/C=C(/c1cccnc1)c1cccc(CCNS(=O)(=O)c2ccc(Cl)cc2)c1', 'IC50', 'nM', 12),
  ('O=C(O)CCC(CCCCNS(=O)(=O)c1ccc(Cl)cc1)CCCc1cccnc1 (stereo not given)', 'IC50', 'nM', 6);

Parameters: items (list). Returns: IC50 for each item.
1. CC(C)(C)OC(=O)CCC/C=C(\c1ccc(CCNS(=O)(=O)c2ccc(Cl)cc2)cc1)c1cccnc1
2. NC(=O)CCC/C=C(\c1ccc(CCNS(=O)(=O)c2ccc(Cl)cc2)cc1)c1cccnc1
3. O=C(O)CCC/C=C(/c1ccc(CCNS(=O)(=O)c2ccc(Cl)cc2)cc1)c1cccnc1

Output:
[200, 94, 380]

----------
Target protein (sequence): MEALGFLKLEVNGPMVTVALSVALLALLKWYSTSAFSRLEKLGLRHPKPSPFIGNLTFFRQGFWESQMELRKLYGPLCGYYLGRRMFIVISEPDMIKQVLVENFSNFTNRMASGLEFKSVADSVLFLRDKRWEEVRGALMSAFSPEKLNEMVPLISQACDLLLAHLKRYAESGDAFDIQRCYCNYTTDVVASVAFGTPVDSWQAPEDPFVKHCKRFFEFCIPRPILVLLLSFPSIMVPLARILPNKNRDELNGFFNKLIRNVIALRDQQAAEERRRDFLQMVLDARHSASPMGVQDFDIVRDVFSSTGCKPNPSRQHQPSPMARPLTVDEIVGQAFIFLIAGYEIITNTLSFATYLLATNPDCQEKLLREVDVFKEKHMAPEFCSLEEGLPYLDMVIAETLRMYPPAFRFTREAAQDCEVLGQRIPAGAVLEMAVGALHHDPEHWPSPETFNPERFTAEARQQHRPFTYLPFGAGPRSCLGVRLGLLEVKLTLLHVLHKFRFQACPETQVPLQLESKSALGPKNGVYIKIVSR
quantity.measured: pIC50
Answers are plain numbers, as −log10 of the molar value.

Take a look at these entries with their results.
INSERT INTO results (query_smiles, measured) VALUES
  ('O=C(O)CCC/C=C(\c1ccc(CCNS(=O)(=O)c2ccc(Cl)cc2)cc1)c1ccc[n+]([O-])c1', 4.35),
  ('O=C(O)CCC/C=C(\c1ccc(CCN(Cc2ccccc2)S(=O)(=O)c2ccc(Cl)cc2)cc1)c1cccnc1', 7.37),
  ('O=C(O)CCCC/C=C(\c1ccc(CCNS(=O)(=O)c2ccc(Cl)cc2)cc1)c1cccnc1', 7.62),
  ('CN(C)C(=O)CCC/C=C(\c1ccc(CCNS(=O)(=O)c2ccc(Cl)cc2)cc1)c1cccnc1', 7.36);

// moving on: another record for pIC50
Task: Please give the documented pIC50 of O=C(O)CCC/C=C(\c1ccc(CCNC(=O)Cc2ccccc2)cc1)c1cccnc1
Output: 7.68

----------
Organism: Homo sapiens
Experiment: tissue or blood
Assay type: functional, organism-based
Conditions: Plasma
quantity.measured: EC50 (µM)
One number for each entry, in µM.

Please review the entries below; each comes with its answer.
INSERT INTO measurements (compound, measured) VALUES
  ('O=C(O)CCC/C=C(\c1ccc(CCN(CCN2CCOCC2)S(=O)(=O)c2ccc(Cl)cc2)cc1)c1cccnc1', 21),
  ('O=C(O)CCCCCC(c1ccc(CCNS(=O)(=O)c2ccc(Cl)cc2)cc1)c1cccnc1 (stereo not drawn)', 1.2),
  ('Cc1ccc(S(=O)(=O)NCCc2ccc(/C(=C\CCCC(=O)O)c3cccnc3)cc2)cc1', 0.7);

Would you mind listing EC50 for each of the following compounds?
1. O=C(O)CCC/C=C(/c1ccc(CCNS(=O)(=O)c2ccc(Cl)cc2)cc1)c1cccnc1
2. O=C(O)c1cccc(/C=C(\c2ccc(CCNS(=O)(=O)c3ccc(Cl)cc3)cc2)c2cccnc2)c1
3. CN(CCc1ccc(/C(=C\CCCC(=O)O)c2cccnc2)cc1)S(=O)(=O)c1ccc(Cl)cc1

Output:
1. 43
2. 30
3. 24

Each compound below has a reported value. Please supply its EC50.
1. O=C(O)CCC/C=C(/c1cccnc1)c1cccc(NS(=O)(=O)c2ccc(Cl)cc2)c1
2. O=C(O)CCC/C=C(/c1cccnc1)c1cccc(CCNS(=O)(=O)c2ccc(Cl)cc2)c1
3. CN(C)C(=O)CCC/C=C(\c1ccc(CCNS(=O)(=O)c2ccc(Cl)cc2)cc1)c1cccnc1
4. O=C(O)CCCCC(c1ccc(CCNS(=O)(=O)c2ccc(Cl)cc2)cc1)c1cccnc1 (stereo not drawn)
5. O=C(O)CCC/C=C(\c1ccc(CNS(=O)(=O)c2ccc(Cl)cc2)cc1)c1cccnc1
6. O=C(O)CCC/C=C(\c1ccc(CCNC(=O)c2ccc(Cl)cc2)cc1)c1cccnc1
7. O=C(O)CCC/C=C(/c1cccnc1)c1cccc(CNS(=O)(=O)c2ccc(Cl)cc2)c1

Output:
40
1.7
40
1.2
5
55
3.8

# per-item lookup of EC50; items listed below
1. O=C(O)CCC/C=C(\c1ccc(CCNS(=O)(=O)c2ccccc2)cc1)c1cccnc1
2. O=C(O)CCC/C=C(\CCCNS(=O)(=O)c1ccc(Cl)cc1)c1cccnc1
3. COC(=O)CCC/C=C(\c1ccc(CCNS(=O)(=O)c2ccc(Cl)cc2)cc1)c1cccnc1

Output:
1. 3.4
2. 47
3. 11
